Assay: Oral bioavailability in rat
Format: ADME, organism-based
Details: in vivo
EXPERIMENTAL READOUT: bioavailability

Consider "Oc1ccc2c(c1)CC[C@H](c1ccccc1)[C@@H]2c1ccc(OCCN2CCCC2)cc1" . Its measured bioavailability is > 60%
